This listing pairs binders with measured koff.
# subject of test: T1, Cyno CD33 ECD-HSA (cynomolgus monkey)
# T1 construct: Cyno CD33 extracellular domain fused to monomeric human serum albumin and a six-histidine tag; also called C33W1
# assay overview: SPRi off-rate screen (IBIS MX96), mAb captured by anti-human Fc; column head prints Cyno CD33 binding KD
Your answer should be a plain number; it is taken to be in s⁻¹.

# count of solved cases: 3
binder	units of measure	koff
C33B73 (antibody, IgG1, V domains shown, huIgG1 F405L; also called C33F78; C33H66/C33L60) VH: QVQLVESGGGVVQPGRSLRLSCVASGFTFSSYGMHWVRQAPGKGLEWVAVISYDGSNKYYADSVKGRFTISRDNSKNTLYLQMNSLRAEGTAVYYCAKDFRSFDWLPPDSASYHGMDVWGQGTTVTVSS VL: SYELTQPPSVSVSPGQTASITCSGDKLGDKYACWYQQKPGQSPVLVIYQDGKRPSGIPERFSGSNFGNKATLTISGTQAMDEADYYCQAWDRNTVVFGGGTKLTVL	s⁻¹	0.000408
C33B63 (antibody, IgG1, V domains shown, huIgG1 F405L; also called C33F68; C33H51/C33L34) VH: QLQLQESGPGLVKPSETLSLTCTVSGGSISTGRYYWGWIRQPPGKGVIWIGNIYYSGNTYYNPSLKSRVTISVDTSKNQFSLKLNSVTAADTAVYYCARLGSLVVVPAAMSFDYWGQGTLVTVSS VL: SYELTQPPSVSVSPGQTASITCSGDKLGDKYACWYQLRPGQSPILVIYQDSNRPSGIPERFSGSNSGNTATLTISGTQAMDEADYYCQAWDSSTWVFGGGTKLTVL	s⁻¹	0.000947
C33B54 (antibody, IgG1, V domains shown, huIgG1 F405L; also called C33F59; C33H44/C33L10) VH: QVQLQQSGPGLVKPSQTLSLTCAISGDSVSSNSAAWNWIRQSPSRGLEWLGRTYYRSKWYNDYAVSVRSRITINPDTSKNQFSLQLNSVTPEDTAVYHCARETMFRGLMDYWGQGTLVTVSS VL: SYVLTQPPSVSVAPGQTARITCGGSNIGSKSVHWYQQKPGQAPVMVVYDDSDRPSGIPERFSGSNSGNTATLTISRVEAGDEADYYCQVWDSSSDVVFGGGTKLTVL	s⁻¹	0.000135

Record summary for C33B96 (antibody, IgG1, V domains shown, huIgG1 F405L; also called C33F101; C33H99/C33L37) VH: EVQLVESGGGLVQPGGSLRLSCAASGFTFSSYWMTWVRPAPGKGLEWVANIKRDGGEKYYVDSVKGRFTISRDNAANSLYLQMNSLRVEDTAVYYCARPFYDHFDYWGQGTLVTVSS VL: SYVLTQPPSVAVAPGQTARITCGGSNIGKISVHWYQQKAGQAPVLVVHDDRARPSGIPERLSGSNSGTTATLTISRVEVGDEADYYCQVWNSSSVHPVFGGGTKLTVL : reported koff = 0.000819

For this binder ( C33B55 (antibody, IgG1, V domains shown, huIgG1 F405L; also called C33F60; C33H45/C33L11) VH: QVQLVESGGGVVQPGRSLRLSCAASGFTFSSYGMHWVRQSPGKGLEWVAVISYDGSNKYCADSVKGRFTISRDNSKSTLYLQMNSLRAEDTAVYYCAKDFRSLDWLPPDSTSYDGMDVWGQGTTVTVSS VL: SYELTQPPSVSVSPGQTASITCSGHKLGDKYACWYQQKPGQSPVVVIYKDSKRPSGIPERFSGSNFGNTATLTISGTQAMDEADYYCQAWDSSTVVFGGGTKLTVL ), measured koff is 0.000116
